- TARGET_SYSTEM: pooled human IgG (human IgG1, 2, 3 and 4)
PROPERTY_LABEL: Enzyme Activity Endpoint Assay: IgG (ng/µL)
Enter your answer as a number in ng/µL; do not include the unit.

PRT-527 (protein) MANQEIRYSEETPKTITSVWTKGVTPPTDFIKNEDVLHAPYIANQGWYDITKTFNGKDDLLCGAATAGNMLHWWFDQNKEEIENYLKKHPEKQKINFNGEQMFDVKEAIDTKDSQTDSALFEYFKDKAFPNLSTKHLGVMPDLVLDMFINGYYLSLGKHGPTPVKRGTKDPRGGIFDAVFTRGDQSKLLTSRHDFKEKTLNEISDLIKQELTEGKALALSHTYANVRINHVINLWGADFNSEGNLEAIYVTDSDSNASIGMKKYYVGVNSAGKVAISAKEIEGDNIGAQVLGLFTLSTGQDIWEQTNLEHHHHHH: 707

Problem: Please give the measured Enzyme Activity Endpoint Assay: IgG for this protein: PRT-538 (protein) MANQEIRYSSDSEWANKKVWVYGITPPEEGAWKYSTYYLPWKKEYGWYDCNKRNPTADGMMCWAATASNLLHWWIAQNKEYIDLYGDKYKGPDKINFNGEQMFDVKEYIDPLDKPQESDIFQCFIDKSFADLSTKHEAGYGDEGINWFIHGIIPSSPAHGPTPVKLRKPYNPAGYFKDVFPRGDGVKLLSNNGDFKELGKERFNETIKDALKNKKGIGLSIGPVNVRSGHVVTMWGAEFDENGDVSYIYIADNNDRWGVGCIRYQIVYEEGGTYTCYKTEIINEDRPIPINRLVTLELGEEYWKQTNLEHHHHHH
Result: 1160
